These measurements were taken from the supplement of paper PMC11451515.

- System: P12-Ichikawa
- experimentalProtocol: cell viability relative to DMSO control; higher = less cytotoxic
- runConditions: HPLM + 10% dialyzed FBS; 48 h; 0.19 µM
Give cell viability for every item shown.
Entry rule: numbers only, all in %.

Annotate the molecule CCC(C1CCC(C)C(O1)C(C)C(O)C(C)C(=O)C(CC)C2OC\3(O[C@]4(CC[C@@](C)(O4)C5CC[C@@](O)(CC)C(C)O5)C(O)\C=C3)C(C)CC2C)C([O-])=O (stereo not given in full) with its measured cell viability. 106

Annotate the molecule NC\1=N\C(=O)N(\C=C1F)[C@H]2C[C@H](O)[C@@H](CO)O2 with its measured cell viability. 65.2

Annotate the molecule Oc1c(Cl)cc(Cl)c2cccnc12 with its measured cell viability. 107

Annotate the molecule CC(C)CC(N(C)C)C1(c2ccc(Cl)cc2)CCC1 (stereo not given) with its measured cell viability. 111

Annotate the molecule CC/1=C(\CCN2CCC(CC2)C3=NOC4=C3C=CC(=C4)F)C(=O)N/5CCCCC5=N1 with its measured cell viability. 124

Annotate the molecule NC(CO)C(=O)NNCc1ccc(O)c(O)c1O (stereo not given) with its measured cell viability. 100

Annotate the molecule CO[C@@H]1[C@@H](O)[C@H](O)[C@@H](n2c3c(Cl)cccc3c3c4c(c5c6cccc(Cl)c6[nH]c5c32)C(=O)NC4=O)O[C@H]1CO with its measured cell viability. 81.9

Annotate the molecule CC[C@@H]1C(=O)N(C)c2cnc(Nc3ccc(C(=O)NC4CCN(C)CC4)cc3OC)nc2N1C1CCCC1 with its measured cell viability. 13.3

Annotate the molecule CCOC(=O)N[C@@H]1CC[C@@H]2[C@@H](C1)C[C@H]1C(=O)O[C@H](C)[C@H]1[C@H]2/C=C/c1ccc(-c2cccc(F)c2)cn1 with its measured cell viability. 117

Annotate the molecule CC(C)n1cnc2c(NCCc3ccc(O)cc3)nc(-c3csc4ccccc34)nc21 with its measured cell viability. 115

Annotate the molecule COc1cc2c(Nc3ccc(Cl)c(Cl)c3F)ncnc2cc1OC[C@@H]1C[C@@H]2CN(C)C[C@@H]2C1 with its measured cell viability. 110

Annotate the molecule Cc1ccc(/C=N/NC(=O)c2ccccc2Oc2ccccc2)o1 with its measured cell viability. 98.3

Annotate the molecule CC[C@H]1CN2CCc3cc(OC)c(OC)cc3[C@@H]2C[C@@H]1C[C@H]1NCCc2cc(OC)c(OC)cc21 with its measured cell viability. 77.1

Annotate the molecule Nc1nc(N)c(N=O)c(OCC2CCCCC2)n1 with its measured cell viability. 92.2

Annotate the molecule CC(C)Cn1cnc2c(N)nc3ccccc3c21 with its measured cell viability. 112
